# target under test: PAK4 (human)
# assay: radiometric filter-binding kinase assay
# test parameters: compound 1.0 µM
// reported residual activity per item
The reply should be a number in %, with the unit left off.

# mol smiles, measurement unit, residual activity
data = [
    ("CCc1cncnc1N1CCN(Cc2nc3cc(C(F)(F)F)ccc3[nH]2)CC1", "%", 88),
    ("O=C(Nc1nc2cc(C(F)(F)F)cc(NC3CC3)n2n1)c1cccnc1", "%", 102),
]

**Q:** residual activity for "COc1ccc(N(C(=O)Nc2c(C)cccc2C)c2cc(Nc3ccc(N4CCN(C)CC4)cc3)ncn2)c(OC)c1" ?
**A:** 94

====

This section presents compounds with their documented residual activity values.
# target under test: DYRK2 (human) (UniProt Q92630)
# Sequence (Q92630 whole entry, looked up): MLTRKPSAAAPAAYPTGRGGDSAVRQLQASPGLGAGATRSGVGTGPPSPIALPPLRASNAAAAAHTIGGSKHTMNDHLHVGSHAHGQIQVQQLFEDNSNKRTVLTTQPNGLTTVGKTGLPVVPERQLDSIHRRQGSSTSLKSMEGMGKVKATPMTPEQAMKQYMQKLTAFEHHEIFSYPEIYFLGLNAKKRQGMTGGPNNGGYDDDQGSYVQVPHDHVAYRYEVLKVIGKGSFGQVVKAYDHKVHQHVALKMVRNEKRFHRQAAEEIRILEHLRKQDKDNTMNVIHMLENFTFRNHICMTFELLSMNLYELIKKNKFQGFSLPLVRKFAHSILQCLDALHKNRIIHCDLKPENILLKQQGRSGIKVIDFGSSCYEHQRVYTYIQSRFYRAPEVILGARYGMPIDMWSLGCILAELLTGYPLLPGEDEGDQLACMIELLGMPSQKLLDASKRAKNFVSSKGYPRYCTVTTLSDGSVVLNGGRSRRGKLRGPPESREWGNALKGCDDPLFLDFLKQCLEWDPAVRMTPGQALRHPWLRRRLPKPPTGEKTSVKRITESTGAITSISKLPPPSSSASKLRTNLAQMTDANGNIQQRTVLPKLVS
# assay: radiometric filter-binding kinase assay
# test parameters: compound 0.1 µM
Answer format: numeric, % implied, no suffix.

Check out these entries, answers already filled in.
# mol smiles, measurement unit, residual activity
measured = [
    ("O=C(O)c1ccc(-c2c[nH]c3ncc(-c4ccccc4)cc23)cc1C1CCCC1", "%", 101),
    ("NC(=O)c1cc2c(-c3cccc(-c4ccccc4)c3)cnc(N)c2s1", "%", 101),
    ("COc1ccc(N(C(=O)Nc2c(C)cccc2C)c2cc(Nc3ccc(N4CCN(C)CC4)cc3)ncn2)c(OC)c1", "%", 85),
]

# evaluate next
**Q:** residual activity lookup needed for "c1ccc2c(-c3cnn4cc(-c5ccc(N6CCNCC6)cc5)cnc34)ccnc2c1" , thanks.
**A:** 108
